Consider the following compounds; for each one, report its z-score.
Test: adipocyte viability effects, profiling panel, cell-based, 3T3-L1 adipocytes, calcein-AM fluorescence, 48 h, basal (AID 1163); further: test concentration not given here
Details: 3T3-L1 adipocytes viability, higher = more signal
One number for each entry.

Recorded results for 5 compounds are shown here.
1. CCCCCN1CC=CC23O[C@@H]4C=CCCOC(=O)C4[C@H]2C(=O)N(CCCCCO)[C@@H]3C1=O (some centres not stated) ... -1.3
2. CN(C)C(=O)[C@]1(Cc2ccccc2N=[N+]=[N-])N=C(c2ccc(OCCCO)cc2)O[C@@H]1c1ccccc1N=[N+]=[N-] ... 0.899
3. COCCOC(=O)N1C(=O)[C@@]2(c3cc(C#CCCO)ccc31)[C@H](C(N)=O)[C@H]1C(=O)O[C@H](c3ccccc3)[C@H](c3ccccc3)N1[C@@H]2c1ccc(O)cc1 ... 0.24
4. O=C(OCc1ccccc1)C1=CCC2c3[nH]c4ccccc4c3C(=O)C1N2S(=O)(=O)c1ccccc1[N+](=O)[O-] (configuration not stated) ... -0.816
5. CC(C)N1C(=O)C[C@@](C(=O)NCC(F)(F)F)(c2ccc([N+](=O)[O-])cc2)[C@H]1c1ccc(CO)cc1 ... 1.13

I have 2 compounds here; please give me z-score for each one.
1. Cc1ccc(S[C@]2(C(=O)NC3CC3)CC(=O)N(Cc3ccccc3)[C@@H]2c2ccc(CO)cc2I)cc1
2. C[C@H]1C2[C@H](Cc3ccccc3)NC(=O)[C@]23C(=O)N[C@H](Cc2ccccc2)C(=O)N2CCC[C@H]2C(=O)NC/C=C\C/C=C/C3[C@@H]2O[C@]12C (some centres not stated)

a:
1. 0.388
2. 0.993

====

Test: binders from COS7 lysate, DM2A8 probe, primary screen, torsin A project, cell lysate, small-molecule microarray, fluorescence 635/667 (AID 1065)
Settings: higher = more signal, COS7 lysate expressing mutant human TOR1A
OBSERVATION_TYPE: composite z-score
Give bare numbers.

1) [N-]=[N+]=NCc1ccccc1C[C@]1(C(=O)N2CCCCC2)N=C(c2ccc(OCCCO)cc2)O[C@H]1c1ccccc1N=[N+]=[N-] ... 0.133
2) COCCOC(=O)N1C(=O)[C@@]2(c3cc(C#CCC(C(=O)OC)C(=O)OC)ccc31)[C@H](C(=O)N1CCN(c3ncccn3)CC1)[C@H]1C(=O)O[C@H](c3ccccc3)[C@H](c3ccccc3)N1[C@@H]2c1ccccc1OCCO ... 0.51

I have 5 compounds here; please give me composite z-score for each one.
1. CC(C)C(O)C1C=CC2C(=O)N(c3ccccc3)C(=O)C2N1Nc1ccc([N+](=O)[O-])cc1 (configuration not stated)
2. CC(C)C(=C=CC[C@H](O)c1ccc(OCCO)cc1)CCO
3. Oc1ccc2cc[n+](Cc3sc4ccccc4c3Cl)cc2c1
4. C=CCC(OC(C)=O)[C@@H]1[C@@H](N(Cc2ccc(-c3ccccc3)cc2)C(=O)Cc2ccc(OC)cc2)c2cc(OCCCO)ccc2N1C(=O)Cc1ccc2ccccc2c1 (some centres not stated)
5. COC(=O)[C@@]1(Cc2ccc(OC)cc2)[C@H]2c3cc(C(=O)N4CCCC4)n(Cc4ccc(C)c(F)c4F)c3C[C@H]2CN1C(=O)c1ccccc1

a:
-0.0664
0.887
-0.466
0.735
-0.5

====

Test: fission yeast growth modulation, primary screen, strain 972, OD600, 24 h, no modulator (AID 1090);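 further: basal condition with compound alone and no growth modifier present; test concentration not given here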
Details: S. pombe 972 growth, higher = more signal, called active from +8 up or from −8 down
Outcome label depends on z-score relative to -0.03: at/above gives true, below gives false.

q: Please check the record CCOC(=O)C[C@H]1[C@H](OC(=O)c2ccc(C(=O)c3ccccc3)cc2)[C@@H](NC(=O)c2ccc3ccccc3n2)c2cc(OCCCO)ccc2N1C(=O)c1ccccc1 and state if its z-score is at or above -0.03.
a: true

q: Then what about the compound C=CC[C@]1(C(=O)NCCCOC)N=C(c2ccc(OCCCO)cc2)O[C@H]1c1ccccc1CN=[N+]=[N-] ?
a: true

q: Then what about the compound C=CCC(OC(C)=O)[C@@H]1[C@@H](N(Cc2ccc(-c3ccccc3)cc2)C(=O)c2cccc3ccccc23)c2cc(OCCCO)ccc2N1C(=O)c1ccc(-c2ccccc2)cc1 (some centres undefined) ?
a: false

q: Then what about the compound C=CC[C@]1(C(=O)NCc2ccccc2)N=C(c2ccc(OCCCO)cc2)O[C@H]1c1ccccc1N=[N+]=[N-] ?
a: true

q: Then what about the compound [N-]=[N+]=NCc1ccccc1C[C@]1(C(=O)N2CCCCC2)N=C(c2ccc(OCCCO)cc2)O[C@H]1c1ccccc1N=[N+]=[N-] ?
a: false

q: Then what about the compound C=CCN1C(=O)[C@]2(O[C@H](CCn3cc([C@H](O)c4ccccc4)nn3)[C@@H]([Si](C)(C)c3ccc(OC)cc3)[C@@H]2C)c2cc(N3CCC3=O)ccc21 ?
a: true

q: Then what about the compound COC(=O)C[C@H]1O[C@]2(C(=O)N(C)c3ccccc32)[C@@H](C)[C@@H]1[Si](C)(C)F ?
a: false

q: Then what about the compound Cc1ccc(S[C@]2(C(=O)O)CC(=O)N(C(C)C)[C@@H]2c2ccc(CO)cc2I)cc1 ?
a: false

q: Then what about the compound COc1cc2c(cc1OC)CN(C(=O)[C@H]1[C@@H]3C(=O)O[C@@H](c4ccccc4)[C@@H](c4ccccc4)N3[C@@H](c3ccc(O)cc3)[C@]13C(=O)Nc1ccc(C#CCCO)cc13)CC2 ?
a: false

q: Then what about the compound C=C(/C(=C/C[C@H](OC(C)=O)c1ccccc1OCCO)c1cnc2ccccc2c1)C(C)C ?
a: false
